# measured target: human androgen receptor (Homo sapiens, UniProt P10275)
# Construct: expressed in transfected cells
# test: Investigation of antagonist effect on androgen receptor (reporter gene assay, 11A11B2 cells, with DHT)
# Type: cell-based
observable: IC50 (nM)
// units = nM; emit number, no label

Given the entry CN(C)CCOC(=O)Nc1cc(N2C(=S)N(c3ccc(C#N)c(C(F)(F)F)c3)C(=O)C2(C)C)ccc1Cl , report its measured IC50.
300

Given the entry CC1(C)C(=O)N(c2ccc(C#N)c(C(F)(F)F)c2)C(=S)N1c1ccc(Cl)c(NC(=O)OCCO)c1 , report its measured IC50.
300

Given the entry CC1(C)C(=O)N(c2ccc(C#N)c(Cl)c2)C(=S)N1c1ccc2sc(NC(=O)OCCO)nc2c1 , report its measured IC50.
100

Given the entry CCCS(=O)(=O)N1CCC(N2C(=S)N(c3ccc(C#N)c(Cl)c3)C(=O)C2(C)C)CC1 , report its measured IC50.
300

====

Please respond with reported IC50 for every item in the list.
# measured target: human androgen receptor (Homo sapiens, UniProt P10275)
# Construct: expressed in transfected cells
# Sequence (P10275 1-920): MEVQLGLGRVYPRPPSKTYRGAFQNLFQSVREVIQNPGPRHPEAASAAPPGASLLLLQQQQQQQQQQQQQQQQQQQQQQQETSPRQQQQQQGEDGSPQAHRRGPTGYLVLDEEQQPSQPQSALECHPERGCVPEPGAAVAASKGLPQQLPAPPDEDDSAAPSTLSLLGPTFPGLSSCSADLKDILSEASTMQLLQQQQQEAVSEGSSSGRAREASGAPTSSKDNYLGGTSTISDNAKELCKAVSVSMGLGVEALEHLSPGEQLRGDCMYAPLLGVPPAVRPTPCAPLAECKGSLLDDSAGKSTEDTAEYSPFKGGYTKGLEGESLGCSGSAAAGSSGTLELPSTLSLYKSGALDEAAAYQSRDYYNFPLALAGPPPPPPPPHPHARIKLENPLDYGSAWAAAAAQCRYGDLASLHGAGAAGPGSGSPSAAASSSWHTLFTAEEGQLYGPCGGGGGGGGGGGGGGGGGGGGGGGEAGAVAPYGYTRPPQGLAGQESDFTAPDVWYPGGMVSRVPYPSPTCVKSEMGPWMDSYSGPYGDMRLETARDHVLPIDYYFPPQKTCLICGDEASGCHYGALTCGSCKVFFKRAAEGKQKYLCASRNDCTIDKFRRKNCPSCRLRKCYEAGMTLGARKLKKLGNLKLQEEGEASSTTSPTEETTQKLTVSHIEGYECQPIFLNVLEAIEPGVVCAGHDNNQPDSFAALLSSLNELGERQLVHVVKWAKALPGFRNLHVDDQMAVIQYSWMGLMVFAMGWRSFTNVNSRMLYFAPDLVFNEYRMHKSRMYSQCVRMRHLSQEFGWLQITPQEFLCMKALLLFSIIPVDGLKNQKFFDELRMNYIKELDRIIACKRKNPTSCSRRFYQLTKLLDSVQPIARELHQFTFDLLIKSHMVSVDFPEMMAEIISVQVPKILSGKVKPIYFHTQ
# test: Investigation of antagonist effect on androgen receptor (reporter gene assay, 11A11B2 cells, with DHT)
# Type: cell-based
// units = nM; emit number, no label

Given the entry CCS(=O)(=O)N1CCC(N2C(=S)N(c3ccc(C#N)c(Cl)c3)C(=O)C2(C)C)CC1 [Example 9] , report its measured IC50.
300

Given the entry CC1(C)C(=O)N(c2ccc(C#N)c(C(F)(F)F)c2)C(=S)N1c1ccc2sc(NC(N)=O)nc2c1 [Example 18] , report its measured IC50.
100

Given the entry CC(=O)N1CCC(N2C(=S)N(c3ccc(C#N)c(Cl)c3)C(=O)C2(C)C)CC1 [Example 6] , report its measured IC50.
200

Given the entry CN(C)CCCOC(=O)Nc1cc(N2C(=O)N(c3ccc(C#N)c(C(F)(F)F)c3)C(=O)C2(C)C)ccc1Cl [Example 32] , report its measured IC50.
500

Given the entry CC1(C)C(=O)N(c2ccc(C#N)c(C(F)(F)F)c2)C(=S)N1c1ccc(Cl)c(NC(=N)N)c1 [Example 55] , report its measured IC50.
700

Given the entry CC(=O)Nc1nc2cc(N3C(=S)N(c4ccc(C#N)c(Cl)c4)C(=O)C3(C)C)ccc2s1 [Example 16] , report its measured IC50.
40

Given the entry CC1(C)C(=O)N(c2ccc(C#N)c(Cl)c2)C(=S)N1c1ccc(Cl)c(NC(=O)OCC(O)CO)c1 (stereo not shown) [Example 50] , report its measured IC50.
300

====

# measured target: human androgen receptor (Homo sapiens, UniProt P10275)
# Construct: expressed in transfected cells
# Sequence (P10275 1-920): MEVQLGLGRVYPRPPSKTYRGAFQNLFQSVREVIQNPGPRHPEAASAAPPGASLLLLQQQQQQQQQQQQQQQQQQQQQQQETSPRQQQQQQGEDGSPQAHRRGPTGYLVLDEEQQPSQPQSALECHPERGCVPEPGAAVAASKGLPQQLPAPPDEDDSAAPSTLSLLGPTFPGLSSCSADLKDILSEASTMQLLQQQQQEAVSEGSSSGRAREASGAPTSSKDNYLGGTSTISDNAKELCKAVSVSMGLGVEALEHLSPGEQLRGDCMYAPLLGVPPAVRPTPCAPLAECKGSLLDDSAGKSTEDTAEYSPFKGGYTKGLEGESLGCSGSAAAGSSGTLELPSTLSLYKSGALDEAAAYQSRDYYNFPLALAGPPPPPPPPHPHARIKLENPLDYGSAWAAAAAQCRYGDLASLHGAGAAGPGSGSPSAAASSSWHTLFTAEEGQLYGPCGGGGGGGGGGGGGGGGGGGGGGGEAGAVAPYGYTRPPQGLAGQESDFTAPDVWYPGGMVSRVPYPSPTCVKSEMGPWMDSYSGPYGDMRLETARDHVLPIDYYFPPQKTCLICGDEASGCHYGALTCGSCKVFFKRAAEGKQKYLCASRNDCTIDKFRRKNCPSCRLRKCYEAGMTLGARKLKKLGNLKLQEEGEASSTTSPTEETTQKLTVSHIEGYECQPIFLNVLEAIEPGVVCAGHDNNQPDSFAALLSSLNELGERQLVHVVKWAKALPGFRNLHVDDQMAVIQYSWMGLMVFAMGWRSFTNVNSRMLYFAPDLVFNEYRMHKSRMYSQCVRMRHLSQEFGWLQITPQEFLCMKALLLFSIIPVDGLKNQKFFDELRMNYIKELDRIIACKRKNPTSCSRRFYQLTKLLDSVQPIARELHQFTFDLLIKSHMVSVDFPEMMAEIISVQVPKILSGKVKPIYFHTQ
# test: Investigation of antagonist effect on androgen receptor (reporter gene assay, 11A11B2 cells, with DHT)
# Type: cell-based
# experimental setup: with 0.1 nmol/L DHT; transcription activity rate of Test Example 1 subtracted; 11A11B2 cells, 48 hours; read-out: IC50
# Method: HeLa cells (purchased from Dai-Nippon Seiyaku K. K.) were cultured overnight in Dulbecco's Modified Eagle Medium containing no phenol red, but containing 3% charcoal-treated fetal bovine serum (hereafter referred to as DCC-FBS) (this medium is hereafter referred to as phenol-red-free DMEM). […]
Please respond with reported IC50 for every item in the list.
// units = nM; emit number, no label

// map COc1cc(N2C(=O)N(c3ccc(Cl)c(NC(=O)OC(C)C)c3)C(C)(C)C2=O)ccc1C#N to recorded IC50 (system: human androgen receptor (Homo sapiens, UniProt P10275))
400

// map COc1cc(N2C(=O)C(C)(C)N(c3ccc(Cl)c(NC(=O)OCCN(C)C)c3)C2=S)ccc1C#N to recorded IC50 (system: human androgen receptor (Homo sapiens, UniProt P10275))
500

// map CN(C)CCOC(=O)Nc1cc(N2C(=O)N(c3ccc(C#N)c(C(F)(F)F)c3)C(=O)C2(C)C)ccc1Cl to recorded IC50 (system: human androgen receptor (Homo sapiens, UniProt P10275))
500

// map CC1(C)C(=O)N(c2ccc(C#N)c(C(F)(F)F)c2)C(=S)N1c1ccc(S(N)(=O)=O)cc1 to recorded IC50 (system: human androgen receptor (Homo sapiens, UniProt P10275))
400

// map CC(C)OC(=O)Nc1cc(N2C(=O)N(c3ccc(C#N)c(C(F)(F)F)c3)C(=O)C2(C)C)ccc1Cl to recorded IC50 (system: human androgen receptor (Homo sapiens, UniProt P10275))
500

// map CCOC(=O)Nc1cc(N2C(=O)N(c3ccc(C#N)c(C(F)(F)F)c3)C(=O)C2(C)C)ccc1Cl to recorded IC50 (system: human androgen receptor (Homo sapiens, UniProt P10275))
200

// map CCC(=O)N1CCC(N2C(=O)N(c3ccc(C#N)c(Cl)c3C)C(=O)C2(C)C)CC1 to recorded IC50 (system: human androgen receptor (Homo sapiens, UniProt P10275))
700
